tested on: GCN2(Kin.Dom.2,S808G); construct: gene EIF2AK4; details: concentration: 1 μM, replicates: in singlicate; n = 1;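 further: KINOMEscan kinase panel screen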
Measured %Inh, listed per entry for reference.
Answer with a number only, understood to be in %.

The cases that follow already have their %Inh on record.
{"Molecule": "Clc1cccc(-c2nc(Nc3ccncc3)c3ccccc3n2)c1 [GW873004]", "Unit label": "%", "%Inh": 0}
{"Molecule": "CSc1ccc(NC2=C(c3ccccc3Cl)C(=O)NC2=O)cc1 [SB-342411]", "Unit label": "%", "%Inh": 0}
{"Molecule": "COc1cc2c(Nc3cccc(NC(=O)c4ccccc4)c3)ncnc2cc1OCCCN1CCOCC1 [GSK223810]", "Unit label": "%", "%Inh": 0}
{"Molecule": "FC(F)(F)c1ccc(-c2nn3ncccc3c2-c2ccnc(Nc3cccc(C(F)(F)F)c3)n2)cc1 [GW828205]", "Unit label": "%", "%Inh": 0}
{"Molecule": "COc1cc2ncnc(Nc3ccc(OCc4ccccc4Br)c(Cl)c3)c2cc1OC.Cl [GI261590]", "Unit label": "%", "%Inh": 24}

Lab note: measured %Inh of Cl.Fc1ccccc1COc1ccc(Nc2ncnc3ccc(-c4nnc(C(F)(F)F)o4)cc23)cc1Cl [GW424170] was 0

Lab note: measured %Inh of CCCc1ccc(S(=O)(=O)NC2CCN(c3ccnc(Nc4ccc(OC)cc4)n3)C2)cc1 (stereo not drawn) [GSK1379737] was 33
